target: canine FcRn/B2M protein complex (canine FcRn ECD with C-terminal poly-His tag and canine Beta-2-Microglobulin) (canine); test: SPR Biacore 8K, pH 6.0, 25 C; Fc captured by SASA tag on BSA chip, FcRn/B2M 400 nM as analyte
Recorded Kd by entry
Numbers only; they are read as nM.

binder	Kd [nM]
variant canine IgG-B Fc polypeptide Y0R (Leu24Tyr, Asn208Arg) (protein, not shown: small tags and cut ends) CPAPEMLGGPSVFIFPPKPKDTLYIARTPEVTCVVVDLDPEDPEVQISWFVDGKQMQTAKTQPREEQFNGTYRVVSVLPIGHQDWLKGKQFTCKVNNKALPSPIERTISKARGQAHQPSVYVLPPSREELSKNTVSLTCLIKDFFPPDIDVEWQSNGQQEPESKYRTTPPQLDEDGSYFLYSKLSVDKSRWQRGDTFICAVMHEALHRHYTQESLSHSPGK	8.64

Please examine the following record next.
Enquiry: Entry variant canine IgG-B Fc polypeptide 0YR (Gln83Tyr, Asn208Arg) (protein, not shown: small tags and cut ends) CPAPEMLGGPSVFIFPPKPKDTLLIARTPEVTCVVVDLDPEDPEVQISWFVDGKQMQTAKTQPREEQFNGTYRVVSVLPIGHYDWLKGKQFTCKVNNKALPSPIERTISKARGQAHQPSVYVLPPSREELSKNTVSLTCLIKDFFPPDIDVEWQSNGQQEPESKYRTTPPQLDEDGSYFLYSKLSVDKSRWQRGDTFICAVMHEALHRHYTQESLSHSPGK has what Kd?
Return: 9.45
